Biological target: T1, human CLDN18.2 on cells (CHO-hCLDN18.2, HEK293-hCLDN18.2, KATO III-hCLDN18.2, DAN-G-hCLDN18.2, NUGC-4) (human, UniProt P56856-2 1-261)
T1 construct: whole, on cells; NUGC-4 is used untransfected; also called human Claudin18.2
Assay: flow cytometry (FACS) on CHO-hCLDN18.2 cells, MFI against Log[Conc.(nM)]; EC50 from the table under the plot
Description: The binding of each of the above 9 antibodies to the CHO-S cell lines stably transfected with human CLDN18.2 and human CLDN18.1 (i.e., CHO-hCLDN18.2 and CHO-hCLDN18.1 prepared as described in the Examples) obtained in Example 1 was determined by flow cytometry (FACS). Reference was made to Example 2 for the experimental methods. The experimental data were analyzed using GraphPad Prism software, and FIGS. 1 and 2 were obtained.

Binder: Positive control antibody Zmab (zolbetuximab) (antibody, human IgG1, kappa, V domains shown) VH: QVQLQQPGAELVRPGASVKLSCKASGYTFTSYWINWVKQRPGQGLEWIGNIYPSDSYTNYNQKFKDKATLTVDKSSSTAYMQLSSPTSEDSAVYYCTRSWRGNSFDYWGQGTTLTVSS VL: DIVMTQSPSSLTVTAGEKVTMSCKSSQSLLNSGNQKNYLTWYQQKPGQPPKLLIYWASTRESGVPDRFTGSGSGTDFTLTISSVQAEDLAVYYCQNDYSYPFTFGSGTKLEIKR
Measure unit: nM
EC50: 3.46
//
Binder: 59C1 (antibody, human IgG1, kappa, V domains shown) VH: QVQLKESGPDLVKPSQSLSLTCTVTGYSITSGYGWNWIRQFPGNKLEWMGYIHFSGSTNYNPSLKSRISITRDTSKNQFFLQLNSVTTEDTATYYCARSGKGNAMDYWGQGTSVTVSS VL: DIQMTQSPSSLTVTAGEKVTMSCKSSQSLLNSGNQKNYLTWYQQKPGQPPKLLIYWASTRESGVPDRFTGSGSGTDFTLTVINMQAEDLALYYCQNDYYFPFTFGSGTKLEIKR
Measure unit: nM
EC50: 5.7
//
Binder: 14A5 (antibody, human IgG1, kappa, V domains shown) VH: QVQLKESGPGLVAPSQSLSITCSVSGFSLNSYGVGWVRQPPGKGLEWLGVIWGDGSTNYHSVLISRLSIRKDNSKSQVFLKLNSLQTDDTATYYCAMITRGNAMDYWGQGTSVTVSS VL: DIVMTQSPSSLTVTAGEKITMSCKSSQSLLNSGNQRNYLTWYQQKPGQTPKLLIYWASTRKSGVPDRFTGSGSGTDFTLTISSVQAEDLAVYSCQNNYLFPLTFGAGTKLELKR
Measure unit: nM
EC50: 5.49
